Test target: UniProt:P0DTD1
Protocol details: Functional biochemical assay to identify treatments for viral infectious disease that targets SARS-COV-2 nsp3 macrodomain, whereby the mechanism of action displaces an ADP-Ribose modified peptide from the binding site. Utilizing a time-resolved fluorescence method to measure binding by reading the emitted fluorescence intensity in two wavelengths.
pIC50: −log10 of the molar value.
Quantity kind: pIC50

{"Smiles representation": "COCc1cc(CNc2ccc([C@@H](CC(=O)O)NC(=O)c3c[nH]c4ncncc34)cc2)on1", "Quantity kind": "pIC50", "Reported result": "< 4.00"}
{"Smiles representation": "CC(C)[C@@H](Nc1ncnc2[nH]c(-c3cccc(-n4cnnn4)c3)cc12)c1ccc2c(c1)S(=O)(=O)CCC2", "Quantity kind": "pIC50", "Reported result": 6.62}
{"Smiles representation": "CC(C)[C@@H](Nc1cc(N2CCOCC2)ncn1)c1ccc2c(c1)S(=O)(=O)CCC2", "Quantity kind": "pIC50", "Reported result": "< 4.00"}
{"Smiles representation": "O=C(NCc1ccccc1F)c1ncnc2[nH]ccc12", "Quantity kind": "pIC50", "Reported result": "< 4.00"}
{"Smiles representation": "COc1nc(NC(=O)c2cc3c(N[C@@H](c4ccc5c(c4)OCCO5)C(C)C)ncnc3[nH]2)n[nH]1", "Quantity kind": "pIC50", "Reported result": 4.33}
{"Smiles representation": "Cn1cc([C@@H](Nc2ncnc3[nH]ccc23)c2ccc(F)cc2)cn1", "Quantity kind": "pIC50", "Reported result": "< 4.00"}
{"Smiles representation": "COc1ccc(CN(c2ncnc3[nH]ccc23)C(C)C)cc1OC", "Quantity kind": "pIC50", "Reported result": "< 4.00"}
{"Smiles representation": "CC(C)[C@@H](Oc1ncnc2[nH]ccc12)c1ccc2c(c1)OCCO2", "Quantity kind": "pIC50", "Reported result": "< 4.00"}
{"Smiles representation": "COc1ccc(C(=O)Nc2ncnc3[nH]c(C)c(C)c23)cn1", "Quantity kind": "pIC50", "Reported result": "< 4.00"}
{"Smiles representation": "CC(C)[C@H](Nc1ncnc2ccoc12)c1ccc2c(c1)S(=O)(=O)CCC2", "Quantity kind": "pIC50", "Reported result": "< 4.00"}

---

Test target: Replicase polyprotein 1ab (Severe acute respiratory syndrome coronavirus 2)
Protocol details: Functional biochemical assay to identify treatments for viral infectious disease that targets SARS-COV-2 nsp3 macrodomain, whereby the mechanism of action displaces an ADP-Ribose modified peptide from the binding site. Utilizing a time-resolved fluorescence method to measure binding by reading the emitted fluorescence intensity in two wavelengths.

{"Smiles representation": "O=C(N[C@@H](C(=O)O)C1Cc2ccccc2C1)c1ncnc2[nH]ccc12", "Test target": "Replicase polyprotein 1ab (Severe acute respiratory syndrome coronavirus 2)", "IC50": "> 99.5 µM"}
{"Smiles representation": "CC(C)[C@@H](Nc1ncnc2[nH]ccc12)c1ccc2c(c1)S(=O)(=O)CCO2", "Test target": "Replicase polyprotein 1ab (Severe acute respiratory syndrome coronavirus 2)", "IC50": "0.181 µM"}
{"Smiles representation": "CC(C)[C@@H](Nc1ncncc1N1CCOCC1)c1ccc2c(c1)S(=O)(=O)CCC2", "Test target": "Replicase polyprotein 1ab (Severe acute respiratory syndrome coronavirus 2)", "IC50": "> 99.5 µM"}
{"Smiles representation": "c1nc(N[C@@H](C2CC2)[C@@H]2CCCOC2)c2cc[nH]c2n1", "Test target": "Replicase polyprotein 1ab (Severe acute respiratory syndrome coronavirus 2)", "IC50": "> 99.5 µM"}
{"Smiles representation": "CCNC(=O)c1cc2c(N[C@H](c3ccnc(N)c3)C(C)C)ncnc2[nH]1", "Test target": "Replicase polyprotein 1ab (Severe acute respiratory syndrome coronavirus 2)", "IC50": "1.79 µM"}
{"Smiles representation": "CC(C)[C@@H](Nc1cc(-c2c[nH]cn2)ncn1)c1ccc2c(c1)OCCO2", "Test target": "Replicase polyprotein 1ab (Severe acute respiratory syndrome coronavirus 2)", "IC50": "> 99.5 µM"}
{"Smiles representation": "CC(C)[C@@H](Nc1ncnc2c1ccn2C)c1ccc2c(c1)OCCO2", "Test target": "Replicase polyprotein 1ab (Severe acute respiratory syndrome coronavirus 2)", "IC50": "> 99.5 µM"}
{"Smiles representation": "CC(C)[C@@H](Oc1cc(N)ncn1)c1ccc2c(c1)S(=O)(=O)CCC2", "Test target": "Replicase polyprotein 1ab (Severe acute respiratory syndrome coronavirus 2)", "IC50": "67.4 µM"}
{"Smiles representation": "Cc1[nH]c2ncnc(NC(=O)[C@@H]3CCO[C@@H]3C)c2c1C", "Test target": "Replicase polyprotein 1ab (Severe acute respiratory syndrome coronavirus 2)", "IC50": "122 µM"}
{"Smiles representation": "N=C(N)C[C@@H](NC(=O)c1ncnc2[nH]ccc12)c1ccc(Br)cc1", "Test target": "Replicase polyprotein 1ab (Severe acute respiratory syndrome coronavirus 2)", "IC50": "> 99.5 µM"}
{"Smiles representation": "CC(C)[C@@H](Nc1ccc(NC(=O)NC2CC2)cc1)c1ccc2c(c1)OCCO2", "Test target": "Replicase polyprotein 1ab (Severe acute respiratory syndrome coronavirus 2)", "IC50": "> 99.5 µM"}
{"Smiles representation": "O=C(c1cc(O)ccn1)N1CCC(c2ccn3ncc(C(=O)N4CCCCC4)c3c2)CC1", "Test target": "Replicase polyprotein 1ab (Severe acute respiratory syndrome coronavirus 2)", "IC50": "> 99.5 µM"}
{"Smiles representation": "O=C(O)[C@H](CC1CC1)Nc1ncnc2[nH]ccc12", "Test target": "Replicase polyprotein 1ab (Severe acute respiratory syndrome coronavirus 2)", "IC50": "> 99.5 µM"}
{"Smiles representation": "CC(C)[C@@H](Nc1ncnc2[nH]c(C(=O)Nc3cn[nH]c3)cc12)c1ccc2c(c1)OCCO2", "Test target": "Replicase polyprotein 1ab (Severe acute respiratory syndrome coronavirus 2)", "IC50": "2.57 µM"}
{"Smiles representation": "c1nc(N2CCC[C@@H]2c2ccc3c(c2)OCCO3)c2cc[nH]c2n1", "Test target": "Replicase polyprotein 1ab (Severe acute respiratory syndrome coronavirus 2)", "IC50": "> 99.5 µM"}
{"Smiles representation": "NS(=O)(=O)c1ccccc1CNc1ncnc2[nH]ccc12", "Test target": "Replicase polyprotein 1ab (Severe acute respiratory syndrome coronavirus 2)", "IC50": "> 124 µM"}
{"Smiles representation": "CNC(=O)c1cccc(-c2cc3c(N[C@@H](c4ccc5c(c4)S(=O)(=O)CCC5)C(C)C)ncnc3[nH]2)c1", "Test target": "Replicase polyprotein 1ab (Severe acute respiratory syndrome coronavirus 2)", "IC50": "6.74 µM"}
{"Smiles representation": "CC(C)[C@H](Nc1ncnc2nccnc12)c1ccc2c(c1)S(=O)(=O)CCC2", "Test target": "Replicase polyprotein 1ab (Severe acute respiratory syndrome coronavirus 2)", "IC50": "> 99.5 µM"}
{"Smiles representation": "CC(C)[C@@H](Nc1ncnc2[nH]ccc12)c1ccc2cn[nH]c2c1", "Test target": "Replicase polyprotein 1ab (Severe acute respiratory syndrome coronavirus 2)", "IC50": "> 99.5 µM"}
{"Smiles representation": "c1nc(Nc2ccc3c(c2)OCO3)c2cc[nH]c2n1", "Test target": "Replicase polyprotein 1ab (Severe acute respiratory syndrome coronavirus 2)", "IC50": "> 99.5 µM"}
{"Smiles representation": "CC(C)Cc1ccc2c(NC(=O)c3ccc(NC(=O)NC4CC4)cc3)c(C(=O)O)sc2n1", "Test target": "Replicase polyprotein 1ab (Severe acute respiratory syndrome coronavirus 2)", "IC50": "> 99.5 µM"}

---

This listing pairs molecules with measured IC50.
Test target: Replicase polyprotein 1ab (Severe acute respiratory syndrome coronavirus 2, UniProt P0DTD1)
Protocol details: Functional biochemical assay to identify treatments for viral infectious disease that targets SARS-COV-2 nsp3 macrodomain, whereby the mechanism of action displaces an ADP-Ribose modified peptide from the binding site. Utilizing a time-resolved fluorescence method to measure binding by reading the emitted fluorescence intensity in two wavelengths.

{"Smiles representation": "O=C(NCc1ccc(F)cn1)c1ncnc2[nH]ccc12", "IC50": "> 99.5 µM"}
{"Smiles representation": "CC(C)[C@@H](Nc1ncnc2[nH]c(-c3cccc(Cn4ccnc4)c3)cc12)c1ccc2c(c1)OCCO2", "IC50": "> 99.5 µM"}
{"Smiles representation": "CC(C)[C@@H](Nc1ncnc2[nH]ccc12)c1cccs1", "IC50": "14.9 µM"}
{"Smiles representation": "CC(C)[C@H](Nc1ncnc2[nH]c(-c3cnn(CC(N)=O)c3)cc12)c1ccc2c(c1)NC(=O)CO2", "IC50": "> 99.5 µM"}
{"Smiles representation": "Cc1[nH]nc2ncc(C(=O)N[C@@H](c3ccc4c(c3)OCCO4)C(C)C)cc12", "IC50": "> 99.5 µM"}

---

Test target: Replicase polyprotein 1ab (Severe acute respiratory syndrome coronavirus 2, UniProt P0DTD1)
Protocol details: Functional biochemical assay to identify treatments for viral infectious disease that targets SARS-COV-2 nsp3 macrodomain, whereby the mechanism of action displaces an ADP-Ribose modified peptide from the binding site. Utilizing a time-resolved fluorescence method to measure binding by reading the emitted fluorescence intensity in two wavelengths.
This listing pairs molecules with measured IC50.
Quantity kind: IC50

{"Smiles representation": "CC(C)[C@@H](Nc1ncnc2c1CCO2)c1ccc2c(c1)S(=O)(=O)CCC2", "Reported result": "62.9 µM"}
{"Smiles representation": "CC(C)[C@H](Nc1cc(-c2nc[nH]n2)ncn1)c1ccc2c(c1)S(=O)(=O)CCC2", "Reported result": "> 99.5 µM"}
{"Smiles representation": "Cc1[nH]c2ncnc(NC(=O)CCc3ccccc3)c2c1C", "Reported result": "> 99.5 µM"}
{"Smiles representation": "O=S(=O)(Cc1ccc(F)cc1)Nc1cnc2[nH]ccc2c1", "Reported result": "> 99.5 µM"}
{"Smiles representation": "CCNC(=O)c1cc2c(N[C@@H](c3cccnc3OCC(F)(F)F)C(C)C)ncnc2[nH]1", "Reported result": "> 99.5 µM"}
